Tested on: Huh-7 HCV replicon cells
Experiment: CC50 assay in Huh-7 HCV replicon cells (CellTiter-Glo)
Format: cell-based, human
Details: 3 days, 50% cytostatic concentration
Experimental: The anti-HCV activity of the pyrido[3,2-d]pyrimidine derivatives of this invention was tested in a human hepatoma Huh-7 cell line harbouring a HCV replicon. The assay comprised the following steps: Step 1: Compound Preparation and Serial Dilution • 1. for water soluble pyrido[3,2-d]pyrimidine derivatives, a volume of 500 μL of solution in cell media (DMEM, 10% FBS, P/S, L-Glutamine) was prepared with a concentration being twice the concentration of the starting final serial dilution concentration. […]
QUANTITY: CC50 (µM)
Note: unit µM is implicit; provide only the numeric part.

Some compounds with recorded CC50:
> print(dat)
                                smiles.text  quantity  experimental.result
1      COCCOc1nc(N)nc2ccc(-c3ccc(F)cc3)nc12      CC50                 50.1
2  Nc1nc(N2CCN(C(=O)COc3ccc(Cl)cc3)CC2)c2nc(-c3ccsc3)ccc2n1      CC50                 13.1
3  COc1ccc(-c2ccc3nc(N)nc(N4CCN(C(=O)Nc5cccc(Cl)c5)CC4)c3n2)cc1OC      CC50                  0.7

Prompt: Could you please provide reported CC50 for CCOc1ccc(-c2ccc3ncnc(N4CCN(C(=O)Nc5cccc(Cl)c5)CC4)c3n2)cc1Cl ? Thanks!
Completion: 25.1

Prompt: Identify the reported CC50 for the following entry. CCCCCOc1nc(N)nc2ccc(-c3ccccc3F)nc12
Completion: 50.1

###

tested on: HCV replicon; test: Anti-HCV assay / replicon assay (EC50, luciferase read-out); format: cell-based, hepatitis C virus (HCV); settings: Hepatitis C virus, Huh-7, 72 h
QUANTITY: pEC50
Remember the convention: pEC50 equals -log10 of concentration in molar.

Examples from the recorded data:
> print(dat)
                                   compound  experimental.result
1  COCCOc1nc(N)nc2ccc(-c3ccc(OC)c(OC)c3)nc12 [Example 471]                 6.42
2  Nc1ccc(-c2ccc3nc(N)nc(N4CCOCC4)c3n2)cc1 [Example 502]                 7.00

Prompt: Hello, please tell me recorded pEC50 for this one: CCOc1nc(N)nc2ccc(-c3ccc(N)cc3)nc12 [Example 465]
Completion: 6.46

Prompt: Fill in pEC50 for record CCOc1nc(N)nc2ccc(-c3ccc(F)c(Cl)c3)nc12 [Example 462]
Completion: 6.37

Prompt: Please indicate pEC50 recorded for CCOc1nc(N)nc2ccc(-c3ccc(Cl)cc3)nc12 [Example 463]
Completion: 6.29

Prompt: Retrieve pEC50 measured for Nc1nc(OCc2ccccc2)c2nc(-c3cccc(F)c3)ccc2n1 [Example 210] and print it.
Completion: 6.66

Prompt: Note down pEC50 recorded for COCCSc1nc(N)nc2ccc(-c3ccc(F)cc3)nc12 [Example 395]
Completion: 7.31

###

system: Huh-7 HCV replicon cells; experiment: CC50 assay in Huh-7 HCV replicon cells (CellTiter-Glo); assay type: cell-based, human; conditions: 3 days, 50% cytostatic concentration
QUANTITY: CC50 (µM)
Record the value in µM, omitting the unit from your answer.

Examples with their reported CC50 follow.
> print(dat)
                                smiles.text  quantity  unit  experimental.result
1         CCCOc1nc(N)nc2ccc(-c3ccccc3F)nc12      CC50    µM                 50.1
2     CCOCCOc1nc(N)nc2ccc(-c3cccc(F)c3)nc12      CC50    µM                 50.1
3  CS(=O)(=O)CCNc1nc(N)nc2ccc(-c3ccc(F)cc3)nc12      CC50    µM                 11.7
4  Nc1nc(N2CCN(C(=O)COc3ccc(Cl)cc3)CC2)c2nc(-c3ccc4c(c3)OCCO4)ccc2n1      CC50    µM                 0.43
5  COc1ccc(-c2ccc3nc(Cl)nc(N4CCN(C(=O)Nc5cccc(C)c5)CC4)c3n2)cc1OC      CC50    µM                 25.1

Prompt: Provide measured CC50 value, entry: CCOc1nc(N)nc2ccc(-c3ccc(F)cc3)nc12
Completion: 50.1

Prompt: Output measured CC50 for this item: Cc1cccc(NC(=O)N2CCN(c3nc(N)nc4ccc(-c5ccc6c(c5)OCCO6)nc34)CC2)c1
Completion: 0.69

Prompt: Identify CC50 associated with the compound COc1ccc(-c2ccc3nc(N)nc(N4CCN(Cc5ccccc5)CC4)c3n2)cc1OC
Completion: 24.6

Prompt: Quote CC50 reported for Nc1nc(N2CCN(C(=O)COc3ccc(Cl)cc3)CC2)c2nc(-c3ccc(F)cc3)ccc2n1 please.
Completion: 25.1

Prompt: Specify measured CC50 for CC(C)Sc1nc(N)nc2ccc(-c3ccc(F)cc3)nc12 .
Completion: 50.1
